Measured Papp values are reported for all entries that follow.
assay_explanation: Permeability of the compound at pH 7.4 by PAMPA
Assay type: ADME
test_settings: read-out: permeability
observation_type: Papp (×10⁻⁶ cm/s)

In [3]: df
Out[3]:
                            chemical_string  observation_type  reported_value
0  CN1Cc2cc(ccc2S(=O)(=O)C2CC2)NC(=O)CCc2cccc(c2)[C@@H](Nc2ccc3c(N)ncc(F)c3c2)C1=O              Papp              12
1  COc1ccc2cc1CCC(=O)Nc1ccc(S(=O)(=O)C3CC3)c(c1)CN(C)C(=O)[C@@H]2Nc1ccc2c(N)ncc(F)c2c1              Papp              54
2  COc1cc2cc(c1)[C@@H](Nc1ccc3c(N)ncc(F)c3c1)C(=O)N(C)Cc1cc(ccc1S(=O)(=O)C1CC1)NC(=O)CC2              Papp              29
3  CN1CCc2cccc(c2)[C@@H](Nc2ccc3c(N)ncc(F)c3c2)C(=O)N(C)Cc2cc(ccc2S(=O)(=O)C2CC2)NC1=O              Papp              22
